Would you mind telling me the reported pre-steady-state target cleavage rate of each entry?
# Test system: EfPiwi piRISC loaded with L1MC piRNA (26 nt)
# Run description: pre-steady-state target cleavage rate (min^-1); auxiliary factor: 500 nM Ephydatia muelleri Gtsf1; guide: L1MC piRNA 5'p-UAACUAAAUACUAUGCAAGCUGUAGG; higher = faster piRNA-guided slicing of the target

{"Sequence chain": "UCCUGGAACAGCUUGCAUACUAUUUAGAUA", "Measured target": "EfPiwi piRISC loaded with L1MC piRNA (26 nt)", "pre-steady-state target cleavage rate": 0.00312}
{"Sequence chain": "UCCUCCUAGCAGCUUGCAUAGUAUUUAGUUA", "Measured target": "EfPiwi piRISC loaded with L1MC piRNA (26 nt)", "pre-steady-state target cleavage rate": 0.0339}
{"Sequence chain": "UCCUGCUACAGCUUGCAUACUAUUAAGUUA", "Measured target": "EfPiwi piRISC loaded with L1MC piRNA (26 nt)", "pre-steady-state target cleavage rate": 0.00453}
{"Sequence chain": "UCCUGCUACAGCUAGCAUAGUUUUUAGUUA", "Measured target": "EfPiwi piRISC loaded with L1MC piRNA (26 nt)", "pre-steady-state target cleavage rate": 0.00472}
{"Sequence chain": "UCCUCCUUCAGCUUGCAUACUAUUUAGUUA", "Measured target": "EfPiwi piRISC loaded with L1MC piRNA (26 nt)", "pre-steady-state target cleavage rate": 0.00784}
{"Sequence chain": "UCCUGGAACAGGUUGCAAAGUAUUUAGUUA", "Measured target": "EfPiwi piRISC loaded with L1MC piRNA (26 nt)", "pre-steady-state target cleavage rate": 0.0118}

Look up pre-steady-state target cleavage rate for the entries below, preserving their order.
1. UCCUGGAUCAGCUUGCAUAGUAUUAAGAAA
2. UCCUGCUACAGCUUGCAUAGUAUUUUAGUUA
3. UCCUGGUACAGCUUGCAUUGUAUUUAGAUA

a:
1. 0.00459
2. 0.00822
3. 0.00292

---

# Tested on: MILI (PIWIL2) piRISC loaded with L1MC piRNA (26 nt);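 note: 1 nM active piRISC with 0.1 nM target library at 33 °C single turnover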
# Run description: pre-steady-state target cleavage rate (min^-1); guide: L1MC piRNA 5'p-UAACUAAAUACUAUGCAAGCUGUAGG; MIWI and MILI are mouse PIWI proteins and EfPiwi is from a freshwater sponge; tags in brackets are library labels; higher = faster piRNA-guided slicing of the target
# Assay setup: auxiliary factor: 500 nM mouse GTSF1
Would you mind telling me the reported pre-steady-state target cleavage rate of each entry?

Look over these answered cases.
{"Sequence chain": "UCCUGGAUGAGCUUCCAUAGUAUUUAGUAA", "pre-steady-state target cleavage rate": 0.0143}
{"Sequence chain": "UCCUGGAUGAGCUUGAUAGUAUUUAGUUA", "pre-steady-state target cleavage rate": 0.017}
{"Sequence chain": "UCCUGGAUGAGCUUGGAUAGUAUAUAGUUA", "pre-steady-state target cleavage rate": 0.122}
{"Sequence chain": "UCCUCCUACAGCUUGCAUAGUAUUAUAGUUA", "pre-steady-state target cleavage rate": 0.258}
{"Sequence chain": "UCCUGGUACAGCUUGCAUAGUAUUUAGUUG [g2:g24:cont:t1G]", "pre-steady-state target cleavage rate": 0.218}

Look up pre-steady-state target cleavage rate for the entries below, preserving their order.
1. UCCUGCAACAGCUUGGAUAGUAUUUAGUUA
2. UCCUGGAUGACCUUGCAUAGUAUUUAGAAA

a:
[0.251, 0.133]

Look up pre-steady-state target cleavage rate for the entries below, preserving their order.
1. UCCUGGAUGUCGUUGCAUAGUAUUUGGUUA
2. UCCUGGAACAGCUUGCAUAGUUUUUUGUUA
3. UCCUGGUACAGCUUGCAUAGUAUUAUCUUA
4. UCCUGGAUGUCGAUGCAAUAGUAUUUAGUUA
5. UCCUACUACAGCUUGCAUAGUAUUUAGUUA
6. UCCUCCUACUGCUUGCAUAGUAUUUAGAUA
7. UCCUGGUACAGGUUGCAUAGUAUUAAGUUA
8. UCCUGGUACAGCUUGCAUAGUAUUAACAAA

a:
1. 0.145
2. 0.0493
3. 0.0311
4. 0.00497
5. 0.294
6. 0.085
7. 0.326
8. 0.0231
